# Target Desc: DYRK2 (human) (UniProt Q92630)
# Sequence (Q92630 whole entry, looked up): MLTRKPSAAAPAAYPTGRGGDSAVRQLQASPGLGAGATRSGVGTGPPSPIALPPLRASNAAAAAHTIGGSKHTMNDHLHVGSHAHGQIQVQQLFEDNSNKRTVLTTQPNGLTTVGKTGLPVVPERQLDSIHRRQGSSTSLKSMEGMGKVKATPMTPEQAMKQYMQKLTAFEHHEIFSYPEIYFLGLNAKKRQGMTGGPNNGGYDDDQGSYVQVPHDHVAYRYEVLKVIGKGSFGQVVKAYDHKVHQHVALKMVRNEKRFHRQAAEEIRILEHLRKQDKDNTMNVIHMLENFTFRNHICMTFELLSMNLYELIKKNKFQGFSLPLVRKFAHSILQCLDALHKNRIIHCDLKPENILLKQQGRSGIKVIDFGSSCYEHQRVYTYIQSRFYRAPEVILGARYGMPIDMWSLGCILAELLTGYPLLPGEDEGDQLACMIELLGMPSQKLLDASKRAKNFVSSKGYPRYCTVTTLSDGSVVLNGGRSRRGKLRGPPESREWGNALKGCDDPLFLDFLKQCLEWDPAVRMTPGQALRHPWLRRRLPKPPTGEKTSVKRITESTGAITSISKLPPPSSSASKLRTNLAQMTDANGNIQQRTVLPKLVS
# Experiment: radiometric filter-binding kinase assay
# Measurement Context: compound 10.0 µM
Parameter Measured: residual activity (%)
Answer format: numeric, % implied, no suffix.

Some molecules with known residual activity results, for comparison:
CCCCCc1ccc(/C=C/[C@H](O)[C@@H](CO)NC)cc1    119
Cc1cc(SCc2sc(-c3ccc(C(F)(F)F)cc3)nc2C)ccc1OCC(=O)O    111
NCC(=O)Nc1ccc(-n2nc(C(F)(F)F)cc2-c2ccc3c(ccc4ccccc43)c2)cc1    121

Query: # query: residual activity | item `C[C@H]1CCCC(=O)CCC/C=C/c2cc(O)cc(O)c2C(=O)O1` | system: DYRK2 (human) (UniProt Q92630)
Response: 62

Query: Try `COC(=O)/C=C/C(=O)OC` next.
Response: 91

Query: And COc1ccc2c(c1)c1c3c(c4c5ccccc5n(C)c4c1n2CC(O)CN(C)C)C(=O)NC3=O (configuration not stated) ?
Response: 70

Query: And then O=C(NOCC(O)CO)c1ccc(F)c(F)c1Nc1ccc(I)cc1Cl (configuration not stated) , what is it?
Response: 111

Query: And then `NC(=O)c1cc(-c2ccnc(NC3CCCCC3)c2)nc(N2CCNCC2)c1` , what is it?
Response: 10

* * *

Documented residual activity across a set of molecules
# Target Desc: MELK (human)
# Experiment: radiometric filter-binding kinase assay
# Measurement Context: compound 10.0 µM
A complete answer gives the number and then names the unit.

Query: // lookup residual activity | system=MELK (human) | key= `Cn1nc(Nc2ccc(F)cc2)c2c(N)ncnc21`
Response: 91%

Query: Try `Cc1ccc2c(c1)C(=O)[C@@]1(O)CCN(c3ccccc3)C1=N2` next.
Response: 96%

Query: Same lookup for `Cc1cccc(Nc2nn(C)c3ncnc(N)c23)c1` , please.
Response: 118%

Query: Same lookup for `C[C@H]1CCCC(=O)CCC/C=C/c2cc(O)cc(O)c2C(=O)O1` , please.
Response: 66%

* * *

# Target Desc: UniProtKB Q96L34
# Sequence (Q96L34 whole entry, looked up): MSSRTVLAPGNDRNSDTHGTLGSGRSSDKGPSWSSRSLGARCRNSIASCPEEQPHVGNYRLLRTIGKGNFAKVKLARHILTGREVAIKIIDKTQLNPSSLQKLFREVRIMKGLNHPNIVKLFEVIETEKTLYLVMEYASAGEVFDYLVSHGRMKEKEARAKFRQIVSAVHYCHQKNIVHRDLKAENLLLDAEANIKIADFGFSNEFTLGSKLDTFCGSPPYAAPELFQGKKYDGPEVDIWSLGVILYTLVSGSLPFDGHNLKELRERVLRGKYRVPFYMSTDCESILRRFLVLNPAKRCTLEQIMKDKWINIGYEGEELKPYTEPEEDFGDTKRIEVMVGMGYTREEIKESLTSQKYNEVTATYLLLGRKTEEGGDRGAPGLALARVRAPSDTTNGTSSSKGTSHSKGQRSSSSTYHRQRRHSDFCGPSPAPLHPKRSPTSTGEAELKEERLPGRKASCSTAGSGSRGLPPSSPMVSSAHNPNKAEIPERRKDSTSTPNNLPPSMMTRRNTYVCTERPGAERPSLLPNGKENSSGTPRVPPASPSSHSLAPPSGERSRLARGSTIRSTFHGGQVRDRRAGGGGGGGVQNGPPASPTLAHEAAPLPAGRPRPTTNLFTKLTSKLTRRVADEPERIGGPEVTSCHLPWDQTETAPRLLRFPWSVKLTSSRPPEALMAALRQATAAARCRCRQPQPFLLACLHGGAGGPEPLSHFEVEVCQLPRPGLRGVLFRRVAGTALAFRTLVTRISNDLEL
# Experiment: radiometric filter-binding kinase assay
# Measurement Context: compound 10.0 µM
Parameter Measured: residual activity (%)
Please state the figure in %; there is no need to write the unit.

Look over these answered cases.
Cc1ccc(-c2ccc3c(ccc4sc5c(c43)NC[C@@H](C)NC5=O)n2)cn1    49
FC(F)(F)c1ccc(-c2ccc(Oc3cncc4sc(-c5nn[nH]n5)cc34)cc2)cc1    97
CC(C)(C#N)c1ccc(N2C(=O)OCc3cnc4ccc(-c5cnc6ccccc6c5)cc4c32)cc1    86
COc1cc2ncn(-c3cc(OCc4ccccc4S(C)(=O)=O)c(C#N)s3)c2cc1OC    42
NCC(=O)Nc1ccc(-n2nc(C(F)(F)F)cc2-c2ccc3c(ccc4ccccc43)c2)cc1    102

Consider the additional compound presented here.
Query: # input compound: `N#Cc1c(O)c2c(-c3ccc(-c4ccccc4O)cc3)csc2[nH]c1=O` ; wanted: its residual activity
Response: 92

* * *

# Target Desc: STK11 CAB39 STRADA (human) (UniProt Q9Y376+Q7RTN6+Q15831)
# Sequence (Q15831 whole entry, looked up): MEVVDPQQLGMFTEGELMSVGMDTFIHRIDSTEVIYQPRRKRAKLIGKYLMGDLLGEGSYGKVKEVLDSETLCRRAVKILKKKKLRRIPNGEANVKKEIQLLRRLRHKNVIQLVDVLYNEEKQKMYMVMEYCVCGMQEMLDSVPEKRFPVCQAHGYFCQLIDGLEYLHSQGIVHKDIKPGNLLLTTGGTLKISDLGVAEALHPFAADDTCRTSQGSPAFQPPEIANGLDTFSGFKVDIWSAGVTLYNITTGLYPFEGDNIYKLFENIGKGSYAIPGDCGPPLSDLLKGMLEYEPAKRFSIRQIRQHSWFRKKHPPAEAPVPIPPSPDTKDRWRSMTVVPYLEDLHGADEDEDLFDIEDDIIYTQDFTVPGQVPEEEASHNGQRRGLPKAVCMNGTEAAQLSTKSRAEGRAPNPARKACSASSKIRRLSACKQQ
# Sequence (Q7RTN6 whole entry, looked up): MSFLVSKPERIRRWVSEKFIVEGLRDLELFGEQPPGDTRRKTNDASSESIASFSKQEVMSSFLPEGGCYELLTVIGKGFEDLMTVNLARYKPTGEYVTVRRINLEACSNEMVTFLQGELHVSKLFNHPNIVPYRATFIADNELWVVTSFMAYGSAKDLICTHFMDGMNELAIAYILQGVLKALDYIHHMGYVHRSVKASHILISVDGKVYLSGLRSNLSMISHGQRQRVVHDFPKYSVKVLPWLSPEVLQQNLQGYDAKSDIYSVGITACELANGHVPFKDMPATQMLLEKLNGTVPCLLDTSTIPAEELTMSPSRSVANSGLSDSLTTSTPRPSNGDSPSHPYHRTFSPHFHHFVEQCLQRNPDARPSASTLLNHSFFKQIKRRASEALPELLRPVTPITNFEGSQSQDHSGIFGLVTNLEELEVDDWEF
# Sequence (Q9Y376 whole entry, looked up): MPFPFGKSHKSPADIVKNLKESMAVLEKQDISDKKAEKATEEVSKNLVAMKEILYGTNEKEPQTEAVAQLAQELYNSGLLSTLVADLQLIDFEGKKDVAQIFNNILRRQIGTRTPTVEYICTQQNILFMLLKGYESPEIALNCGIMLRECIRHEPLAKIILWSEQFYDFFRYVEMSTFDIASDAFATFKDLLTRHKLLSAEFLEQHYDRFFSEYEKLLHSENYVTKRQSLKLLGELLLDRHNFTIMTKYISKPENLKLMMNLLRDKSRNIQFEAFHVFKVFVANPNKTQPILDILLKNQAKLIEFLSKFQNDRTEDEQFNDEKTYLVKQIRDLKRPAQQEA
# Experiment: radiometric filter-binding kinase assay
# Measurement Context: compound 0.1 µM
Parameter Measured: residual activity (%)
The reply should be a number in %, with the unit left off.

Solved cases below.
CC1=C(CO)C(=O)O[C@@H]([C@@H](C)[C@H]2CC[C@H]3[C@@H]4C[C@H]5O[C@]56[C@@H](O)C=CC(=O)[C@]6(C)C4CC[C@]23C)C1 (stereo partly drawn)    104
c1ccc2c(-c3cnn4cc(-c5ccc(N6CCNCC6)cc5)cnc34)ccnc2c1    109
Cc1ccc(-c2ccc3c(ccc4sc5c(c43)NC[C@@H](C)NC5=O)n2)cn1    118
COc1cc(O)c2c(c1)[C@H]1OC1C[C@H](O)[C@H](O)C(=O)/C=C\C[C@H](C)OC2=O (stereo partly drawn)    120
CN(C)C/C=C/C(=O)Nc1cccc(C(=O)Nc2ccc(Nc3nccc(-c4cccnc4)n3)cc2)c1    78

Query: # get_value(readout='residual activity', item= `NC(=O)c1cc(-c2ccnc(NC3CCCCC3)c2)nc(N2CCNCC2)c1` )
Response: 77

Query: Moving on to the next molecule: `NC1(c2ccc(-c3nc4ccn5c(=O)[nH]nc5c4cc3-c3ccccc3)cc2)CCC1`
Response: 102

Query: Next record, please: `CNc1nc(-c2ccc3c(N)n[nH]c3c2)cc(N2C[C@@H](C(=O)NC3CCCCC3)CC[C@H]2C)n1`
Response: 124
